normalized growth listing for selected molecules.
PROTOCOL: chemical genetic growth profiling, strain panel (AID 1159580);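 also: tested at 20 µM; growth read once vehicle control cultures reached saturation at 30 °C; 1 = growth at the plate median or of vehicle wells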
STUDY_CONDITIONS: S. cerevisiae deletion strains, growth OD, locus YPR119W, strain clb2, stronger effect = lower value
The campaign covered roughly 5,500 compounds. About 2,000 (36%) were called active. About 18% were inconclusive and are not listed. The list shows a part of the results.
READOUT_LABEL: normalized growth

CCCCCCCCCCCCCCCC[N+](C)(C)C :: 0.0613
CC(=O)C1CCC2C3CC(=O)C4=CC(=O)CCC4(C)C3CCC12C (stereo not drawn) :: 0.99
CC(=O)[C@H]1CCC2C3CCC4=CC(=O)CC[C@]4(C)C3CC[C@@]21C (stereo partly drawn) :: 0.919
COc1cc2c(cc1OC)C1C(=O)c3c(O)cc4c(c3OC1CO2)C=CC(C)(C)O4 (stereo not drawn) :: 1.03
COCCc1ccc(OCC(O)CNC(C)C)cc1 (stereo not drawn) :: 1.02
COc1ccc2c(c1)O[C@@H]1COc3cc(OC)c(OC)cc3[C@@H]1C2=O :: 0.731
CCOC(=O)c1c(C)cc(O)c(C=O)c1O :: 0.164
COc1cc2c(cc1OC)C1C(=O)c3c(OC)cc4c(c3OC1CO2)CCC(C)(C)O4 (stereo not drawn) :: 0.983
CCC(=O)O[C@H]1CCC2C3CCC4=CC(=O)CC[C@]4(C)C3CC[C@@]21C (stereo partly drawn) :: 0.981
COc1cc(NC(C)CCCN)c2ncccc2c1 (stereo not drawn) :: 1.01
C=Cc1c2[nH]c(c1C)C=c1[nH]c(c(C)c1C=C)=CC1N=C(C=c3[nH]c(c(C)c3CCC(=O)O)=C2)C(CCC(=O)O)=C1C (stereo not drawn) :: 0.994
COc1cc2c(cc1OC)[C@@H]1C(=O)c3ccc(O)c(CC=C(C)C)c3O[C@@H]1CO2 :: 0.986
CC1CC2C3CCC4=CC(=O)C=C[C@]4(C)[C@@]3(F)[C@@H](O)C[C@]2(C)[C@@]1(O)C(=O)CO (stereo partly drawn) :: 0.973
CCCCNc1cc(C(=O)O)cc(S(N)(=O)=O)c1Oc1ccccc1 :: 0.983
OCC(O)C(O)C(O)CO (stereo not drawn) :: 1
COc1cc2c(cc1OC)[C@@H]1C(=O)c3ccc4oc(C(C)C)cc4c3O[C@@H]1CO2 :: 1.01
CCOC(=O)c1c(C)cc(O)c(C)c1O :: 0.928
CC1/C(=N\O)C[C@@H]2C[C@H]1C2(C)C (stereo partly drawn) :: 1.03
COc1cc(O)c(C(=O)/C=C/c2ccccc2)c(OC)c1 :: 0.921
Cc1cc(O)c(C)c(O)c1C(=O)O :: 0.997
CC[C@H](/C=C/C(C)C1CCC2C3CCC4=CC(=O)CC[C@]4(C)C3CC[C@]12C)C(C)C (stereo partly drawn) :: 1
COc1cc2c(cc1OC)[C@@H]1C(=O)c3ccc4c(c3O[C@@H]1CO2)C=CC(C)(C)O4 :: 0.983
CNCCc1ccccn1 :: 1.01

---

PROTOCOL: chemical genetic growth profiling, strain panel (AID 1159580)
STUDY_CONDITIONS: S. cerevisiae deletion strains, growth OD, locus YJL129C, strain trk1, stronger effect = lower value
In all, about 5,500 compounds went through this assay and about 2,000 (36%) were called active. About 18% were inconclusive and are not listed. Some of the results follow.
normalized growth listing for selected molecules.
READOUT_LABEL: normalized growth

CC(=O)OCC[N+](C)(C)C :: 1.09
C=Cc1c2[nH]c(c1C)C=c1[nH]c(c(C)c1C=C)=CC1N=C(C=c3[nH]c(c(C)c3CCC(=O)O)=C2)C(CCC(=O)O)=C1C (stereo not drawn) :: 1.04
Oc1cc(Cl)ccc1Oc1ccc(Cl)cc1Cl :: 0.084
c1ccc(N=Nc2ccccc2)cc1 :: 0.969
COc1cc(NS(=O)(=O)c2ccc(N)cc2)nc(OC)n1 :: 0.969
O=C(O)C1(O)C[C@@H](O)C(O)[C@H](O)C1 (stereo partly drawn) :: 0.984
C[N+](C)(C)CCOC(N)=O :: 1.02
CC1=C(C(C)O)C2=NC1C=c1[nH]c(c(C)c1C(C)O)=Cc1[nH]c(c(CCC(=O)O)c1C)C=c1[nH]c(c(C)c1CCC(=O)O)=C2 (stereo not drawn) :: 0.949

---

PROTOCOL: chemical genetic growth profiling, strain panel (AID 1159580);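 also: tested at 20 µM; growth read once vehicle control cultures reached saturation at 30 °C; 1 = growth at the plate median or of vehicle wells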
STUDY_CONDITIONS: S. cerevisiae deletion strains, growth OD, locus YPL106C, strain sse1
Screen size: about 5,500 compounds; about 2,000 (36%) were called active. Not shown: some 18% with an inconclusive outcome. Cut-off read from the data, not from the text of the source: active = normalized growth mostly below about 0.91 (no sharp cut-off); inconclusive = no clear call, values can overlap the other calls; inactive = mostly above about 0.92. Some of the results follow.
Classes used: Y = active, N = inactive

CC1=C(/C=C/C(C)=C/C=C/C(C)=C/C=C/C=C(C)/C=C/C=C(C)/C=C/C2=C(C)C(=O)CCC2(C)C)C(C)(C)CCC1=O :: N
COc1cc(NS(=O)(=O)c2ccc(N)cc2)nc(OC)n1 :: N
CN1CCC(=C2c3ccccc3CCc3sccc32)CC1 :: N
CN1CCC(=C2c3ccccc3Sc3ccccc32)CC1 :: N
COc1cc2c(cc1OC)Cc1cc(OC)c(OC)cc1Cc1cc(OC)c(OC)cc1C2 :: N
N=c1ccn2c(n1)O[C@@H]1C2O[C@H](CO)[C@H]1O (stereo not given in full) :: N
CC1=C(C(C)O)C2=NC1C=c1[nH]c(c(C)c1C(C)O)=Cc1[nH]c(c(CCC(=O)O)c1C)C=c1[nH]c(c(C)c1CCC(=O)O)=C2 (stereo not given) :: N
COc1cc2c(cc1OC)C(=O)OC2 :: N
CC1=C(/C=C/C(C)=C/C=C/C(C)=C/C=C/C=C(C)/C=C/C=C(C)/C=C/C2=C(C)C(=O)C(O)CC2(C)C)C(C)(C)CC(O)C1=O (stereo not given) :: N
CCCCCCNC(=O)n1cc(F)c(=O)[nH]c1=O :: Y

---

PROTOCOL: chemical genetic growth profiling, strain panel (AID 1159580);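 also: tested at 20 µM; growth read once vehicle control cultures reached saturation at 30 °C; 1 = growth at the plate median or of vehicle wells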
STUDY_CONDITIONS: S. cerevisiae deletion strains, growth OD, locus YMR058W, strain fet3
Hit rate of the full screen: of about 5,500 compounds, about 2,000 (36%) were called active. About 18% were inconclusive and are not listed. No stated cut-off is given here; in the data, active means normalized growth mostly below about 0.91 (no sharp cut-off); inconclusive means no clear call, values can overlap the other calls; inactive means mostly above about 0.92. Some of the results follow.
Classes used: yes = active, no = inactive

CC1=C(C/C=C(\C)CCC[C@H](C)CCC[C@H](C)CCCC(C)C)C(=O)c2ccccc2C1=O :: no
COc1cc(NC(C)CCCN)c2ncccc2c1 (centres undefined) :: no
CCOC(=O)[C@H](CCc1ccccc1)N[C@H]1CCc2ccccc2N(CC(=O)O)C1=O :: no
CC1CC2C3CC(F)C4=CC(=O)C=CC4(C)C3(F)C(O)CC2(C)C1(O)C(=O)CO (centres undefined) :: no
COc1cc(/C=C/C(=O)/C=C(O)/C=C/c2ccc(O)c(OC)c2)ccc1O :: yes
C=C1C2CC[C@H]3[C@]4(C)C[C@H](OC5OC(CO)C(OS(=O)(=O)O)C(OS(=O)(=O)O)C5OC(=O)CC(C)C)C[C@@H](C(=O)O)[C@H]4CC[C@]3(C2)[C@H]1O (some centres undefined) :: no
C[C@H]1CC2C([C@@H](O)C[C@@]3(C)C2CC[C@]3(O)C(=O)CO)[C@@]2(C)C=CC(=O)C=C12 (some centres undefined) :: no
COc1ccc2c3c1O[C@H]1C[C@@H](O)C=C[C@@]31CCN(C)C2 :: no
COc1cc(O)c(C(=O)/C=C/c2ccc(OC)c(O)c2)c(OC)c1 :: yes

---

PROTOCOL: chemical genetic growth profiling, strain panel (AID 1159580);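 also: tested at 20 µM; growth read once vehicle control cultures reached saturation at 30 °C; 1 = growth at the plate median or of vehicle wells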
STUDY_CONDITIONS: S. cerevisiae deletion strains, growth OD, locus YNL128W, strain TEP1, stronger effect = lower value
About 2,000 (36%) of roughly 5,500 compounds were called active. Another 18% or so got no clear call; they are omitted. The list shows a part of the results.
normalized growth listing for selected compounds.
READOUT_LABEL: normalized growth

COP(=O)(OC)OC=C(Cl)Cl :: 0.956 (inactive)
OCC(O)C(O)C(O)CO (stereo unspecified) :: 1.02 (inactive)
CCN(CCO)CCCC(C)Nc1ccnc2cc(Cl)ccc12 (stereo unspecified) :: 1.02 (inactive)
O=C(O)c1c2ccccc2cc2ccccc12 :: 1.02 (inactive)
ClC1=C(Cl)C2(Cl)C3C(Cl)C=CC3C1(Cl)C2(Cl)Cl (stereo unspecified) :: 0.987 (inactive)
COc1cc2c(cc1OC)[C@@H]1C(=O)c3ccc4c(c3O[C@@H]1CO2)C=CC(C)(C)O4 :: 0.995 (inactive)
O=C1c2cccc3cc([N+](=O)[O-])cc(c23)C(=O)N1CCO :: 1 (inactive)
COc1ccc(NC(=O)c2cc(C(F)(F)F)cc(C(F)(F)F)c2)cn1 :: 0.953 (inactive)
COc1cc(C(F)(F)F)cc(C(F)(F)F)c1C(=O)Nc1cc(C(F)(F)F)cc(C(F)(F)F)c1 :: 1 (inactive)
CCN(CC)CCCC(C)Nc1ccnc2cc(Cl)ccc12 (stereo unspecified) :: 1.04 (inactive)
COc1cc2c(cc1OC)[C@@H]1C(=O)c3ccc(O)c(CC=C(C)C)c3O[C@@H]1CO2 :: 0.966 (inactive)
